- target_or_system: T1, CH2-4 constant domains of human IgE linked to a transmembrane protein, on 293 cells (human, UniProt P01854-1 104-428)
- T1 construct: domain: CH2-4 constant domains; also called human IgE-expressing 293 cells
- T1 sequence (P01854 other isoform, or with tags, fused parts or gaps): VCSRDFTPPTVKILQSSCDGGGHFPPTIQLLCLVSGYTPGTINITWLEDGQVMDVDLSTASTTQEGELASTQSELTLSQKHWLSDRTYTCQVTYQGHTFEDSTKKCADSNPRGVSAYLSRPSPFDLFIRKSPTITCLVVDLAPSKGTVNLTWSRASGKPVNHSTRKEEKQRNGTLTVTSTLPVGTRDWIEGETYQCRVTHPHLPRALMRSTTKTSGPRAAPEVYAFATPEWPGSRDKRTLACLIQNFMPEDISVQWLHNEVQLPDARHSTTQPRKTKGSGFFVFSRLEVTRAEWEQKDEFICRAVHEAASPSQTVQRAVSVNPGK
- run_description: flow cytometry, 293 cells expressing human IgE CH2-4
// reported Bmax per item
Hi! Could you send only the number? It should be in MFI, unit omitted.

Recorded Bmax, per entry:
{"binder": "hzB10v3-NNT (Fc fusion, monomeric) VHH-Fc: EVQLVQSGGELVQAGGSLRLSCVASGLTFSSYNMGWVRQAPGKEREFVGMSGSSSTSTYYADSVKGRFTISRDNSKNTVYLQMNSLKPEDTAVYYCAARRMLSTYWSDRSWDFWGQGTQVTVKPGGPSVFLFPPKPKDTLMISRTPEVTCVVVDVSHEDPEVKFNWYVDGVEVHNAKTKPREEQYNSTYRVVSVLTVLHQDWLNGKEYKCKVSNKALPAPIEKTISKAKGQPREPQVYTLPPSRDELTKNQVNLTCLVKGFYPSDIAVEWESNGQPENNYKTTPPVLDSDGSFFLNSTLTVDKSRWQQGNVFSCSVMHEALHNHYTQKSLSLSPGK", "test_result": "1.69e+06"}
{"binder": "B10-NNT (Fc fusion, monomeric; also called parental B10 monomeric VHH-hIgG1-Fc fusion (Fc NNT)) VHH-Fc: EVQLVQSGGELVQAGGSLRLSCVASGLTFSSYNMGWLRQAPGKEREFVGMSGSSSTSTYYADSVKGRFTISRDNSKNTVYLQMNSLKPEDTAVYYCAARRMLSTYWSDRSWDFWGQGTQVTVKPGGPSVFLFPPKPKDTLMISRTPEVTCVVVDVSHEDPEVKFNWYVDGVEVHNAKTKPREEQYNSTYRVVSVLTVLHQDWLNGKEYKCKVSNKALPAPIEKTISKAKGQPREPQVYTLPPSRDELTKNQVNLTCLVKGFYPSDIAVEWESNGQPENNYKTTPPVLDSDGSFFLNSTLTVDKSRWQQGNVFSCSVMHEALHNHYTQKSLSLSPGK", "test_result": "1.36e+06"}
{"binder": "hzB10v18-NNT (Fc fusion, monomeric) VHH-Fc: EVQLLESGGGEVQPGGSLRLSCVASGLTFSSYNMGWLRQAPGKEREFVGLSGSSSTSTYYADTVKGRFTISRDNSKNTVYLQMNSLKPEDTAVYYCAARRLLSTYWSDRSWDFWGQGTQVTVEPGGPSVFLFPPKPKDTLMISRTPEVTCVVVDVSHEDPEVKFNWYVDGVEVHNAKTKPREEQYNSTYRVVSVLTVLHQDWLNGKEYKCKVSNKALPAPIEKTISKAKGQPREPQVYTLPPSRDELTKNQVNLTCLVKGFYPSDIAVEWESNGQPENNYKTTPPVLDSDGSFFLNSTLTVDKSRWQQGNVFSCSVMHEALHNHYTQKSLSLSPGK", "test_result": "1.95e+06"}

For the next question, use this binder.
Query block: Any idea what its Bmax is? The binder is hzB10v15-NNT (Fc fusion, monomeric) VHH-Fc: EVQLLESGGGEVQPGGSLRLSCVASGLTFSSYNMGWVRQAPGKEREFVSLSGSSSTSTYYADSVKGRFTISRDNSKNTVYLQMNSLKPEDTAVYYCAARRLLSTYWSDRSWDFWGQGTQVTVEPGGPSVFLFPPKPKDTLMISRTPEVTCVVVDVSHEDPEVKFNWYVDGVEVHNAKTKPREEQYNSTYRVVSVLTVLHQDWLNGKEYKCKVSNKALPAPIEKTISKAKGQPREPQVYTLPPSRDELTKNQVNLTCLVKGFYPSDIAVEWESNGQPENNYKTTPPVLDSDGSFFLNSTLTVDKSRWQQGNVFSCSVMHEALHNHYTQKSLSLSPGK
Result block: 1.89e+06

Values from patent US20250163186A1
